# Tested on: NCI/ADR-RES ovarian
# Experiment: NCI tumour cell line growth inhibition, 48 h
Answer each item with its documented TGI.

State, in one line, measured TGI of "Cc1n[nH]c(=S)n1/N=C/c1ccc(F)c(Oc2ccccc2)c1"
> 100 µM

State, in one line, measured TGI of "COc1cc(C#N)cc(OC)c1OCCOCCOc1c(OC)cc(C#N)cc1OC"
> 100 µM

State, in one line, measured TGI of "O=C(CCN1CC2CCC(CC2)C1)c1cccs1"
62.1 µM

State, in one line, measured TGI of "CCCCCCCC/C=C/CCCCCCCC1=NC(C)(C)CN1C(C)C"
3.16 µM

State, in one line, measured TGI of "CN[C@]12CC3(C=CC(=O)C=C3)O[C@@]1(Cc1ccc(OC)cc1)N(C)C(=O)N2"
> 100 µM

State, in one line, measured TGI of "CC(=O)CCNc1ccc(-c2cc(-c3ccc(N(C)C)cc3)nc3ccc4ccccc4c23)cc1"
> 100 µM

* * *

# System: KM12 colon
# Experiment: NCI tumour cell line growth inhibition, 48 h
Readout type: TGI

Specify the recorded TGI for "Cc1n[nH]c(=S)n1/N=C/c1ccc(F)c(Oc2ccccc2)c1" , system: KM12 colon.
> 100 µM

Specify the recorded TGI for "Cc1ccc2c(=O)cc(-c3cccc4ccccc34)[nH]c2n1" , system: KM12 colon.
1.98 µM

Specify the recorded TGI for "N/C(=N\N=C\c1cccs1)NO" , system: KM12 colon.
> 100 µM

Specify the recorded TGI for CCCCCC(O)[C@H]1C(=O)C[C@@H](O[Si](C)(C)C(C)(C)C)[C@@H]1/C=C/CCOCc1ccccc1 (some centres undefined) , system: KM12 colon.
17.2 µM

Specify the recorded TGI for COC(=O)/C(C#N)=C1\CCC(O)N1C (centres undefined) , system: KM12 colon.
> 100 µM

Specify the recorded TGI for "N#CC(=S)Nc1ccc(Cl)c(Cl)c1" , system: KM12 colon.
> 95.6 µM

Specify the recorded TGI for "Nc1nc(Nc2ccccc2)sc1C(=O)c1ccc(Cl)cc1" , system: KM12 colon.
> 100 µM

Specify the recorded TGI for "CC1(C)OC(C(N)=O)=C(C(N)=O)O1" , system: KM12 colon.
> 100 µM

Specify the recorded TGI for Cc1ccccc1NC(=O)C(=O)C(c1cnc2ccc([N+](=O)[O-])cc2n1)[N+](=O)[O-] (centres undefined) , system: KM12 colon.
> 100 µM

Specify the recorded TGI for "CN(c1ccccc1)S(=O)(=O)c1ccccc1[N+](=O)[O-]" , system: KM12 colon.
> 100 µM

Specify the recorded TGI for "O=c1c2cc([N+](=O)[O-])ccc2n(Cc2ccccc2)n1Cc1ccccc1" , system: KM12 colon.
22.2 µM

Specify the recorded TGI for CCCCCCCC/C=C\CCCCCCC(F)C(=O)O (centres undefined) , system: KM12 colon.
> 12.5 µM

Specify the recorded TGI for "CCOC(=O)c1sc2nc(SC)nc3c2c1N=CN3c1ccccc1Cl" , system: KM12 colon.
> 100 µM

Specify the recorded TGI for "Cc1oc2c(C)c(O)c3c(c2c1C1(C)OCCO1)C(=O)C=C(Cl)C3=O" , system: KM12 colon.
> 100 µM

Specify the recorded TGI for COc1ccc(NC(=O)C(=O)C2CNC(=O)NC2=O)c(OC)c1 (centres undefined) , system: KM12 colon.
> 100 µM

Specify the recorded TGI for "O=C(O)c1ccc(O)c(N=Nc2cc(S(=O)(=O)O)c3ccccc3c2O)c1" , system: KM12 colon.
> 100 µM

Specify the recorded TGI for ClC1CCC2OOC1O2 (centres undefined) , system: KM12 colon.
> 100 µM

Specify the recorded TGI for CCOP(=O)(OCC)C1CC(O)CN1OC(=O)C(C)(C)C (centres undefined) , system: KM12 colon.
> 100 µM

Specify the recorded TGI for "O=C1c2ccccc2-c2nc3ccc(O)cc3n21" , system: KM12 colon.
> 100 µM

Specify the recorded TGI for "Oc1c2cc(Br)cc1CCc1cc(Br)cc(c1O)CC2" , system: KM12 colon.
37.5 µM

Specify the recorded TGI for CC(=O)OC1CC(O)CC2=CCC3C4CCC(C(C)(O)C(O)CC5COC(=O)C5C)C4(C)CCC3C21C (centres undefined) , system: KM12 colon.
> 25 µM

Specify the recorded TGI for "CC(C)[Si](OC1=C(C(=O)Nc2ccccc2Cl)CCCCC1)(C(C)C)C(C)C" , system: KM12 colon.
> 100 µM

Specify the recorded TGI for C=C(C)CC1=C(OCC)C(OC)(OCC)C1=O (centres undefined) , system: KM12 colon.
> 100 µM

Specify the recorded TGI for "O=c1[nH]c(-c2cccc(F)c2)nc2ccccc12" , system: KM12 colon.
> 100 µM

Where do the numbers come from? From PubChem BioAssay (NCI).
